B1: SPSB4 (parent)
chain: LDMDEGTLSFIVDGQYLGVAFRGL

- Variants of: B1
- test summary: protein stability index of a GFP-peptide fusion (GPS, HEK-293T) (PSI 1-6); higher = more stable;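 also: lentivirally expressed fusions sorted by FACS into six bins by GFP to DsRed ratio, PSI derived from sequencing read proportions per bin multiplied by bin number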
- measurement context: c terminus: a fixed tail appended
Mark 0.0 for protein stability index values under 2, and 1.0 for everything at or above.

1) M3L : 1.0
2) L1N : 0.0
3) G23V : 1.0
4) D4N : 0.0
5) A20P : 0.0

Source of measurements: the supplement of paper PMC10567573
